- target_system: T1, P4A-bH
- T1 chain: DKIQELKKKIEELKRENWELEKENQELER
- test_details: two-hybrid library CCNG1;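 further: natural log of median RNA to DNA barcode read ratio; higher means stronger binding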
reported_metric: interaction score

[a] DKNQELKKENEELERKIWELKKKIQELKR [P10A-bH]
[b] DKIQELKKKIEELKRENWELEKENQELER [P4A-bH]
Please let me know which one, a or b , has a lower measured interaction score value. Your answer should be the label of the entry you select. b

The reported numbers originate from paper PMC10397247.
